assay: Microsomal stability (intrinsic clearance), mouse liver microsomes; assay type: in vitro ADME; conditions: pH 7.4
PROPERTY: microsomal CLint (µL/min/mg)
State just the number; it will be interpreted in µL/min/mg.

- MOLECULE: "Cc1ccc2c(=O)[nH]c(CCCC(=O)N3CCC(C(=O)c4cnn(C)c4)CC3)nn12"
  RESULT NUMBER: 46
- MOLECULE: "COc1ccc(C(=O)C2CCN(C(=O)CCCc3nc4c(cnn4C)c(=O)[nH]3)CC2)cc1"
  RESULT NUMBER: 36
- MOLECULE: "Cn1cc(C(=O)C2CCN(C(=O)CCCc3nn4cc(F)cc4c(=O)[nH]3)CC2)cn1"
  RESULT NUMBER: 29
- MOLECULE: "COc1ccc(C(=O)C2CCN(C(=O)CCCc3nc4c(F)cc(F)cc4c(=O)[nH]3)CC2)cc1 [Compound A5, reference compound]"
  RESULT NUMBER: 86
- MOLECULE: "COc1ccc(C(=O)C2CCN(C(=O)CCCc3nc4c(cnn4C)c(=O)[nH]3)CC2)cn1"
  RESULT NUMBER: 36

Could you now consider this next molecule?
**Q:** Determine from records and report microsomal CLint for COc1ccc(C(=O)C2CCN(C(=O)CCCc3nc4ccccc4c(=O)[nH]3)CC2)cc1 [Compound A1, reference compound]
**A:** 120

---

Listed here: items and their measured IC50.
molecular target: PARP-1 (Homo sapiens, UniProt P09874); construct: purchased Enzo Life Sciences GmbH, Lörrach, Germany; test: PARP-1 autoparsylation assay (HTRF); assay type: biochemical; conditions: His-tagged Parp-1, autoparsylation HTRF
Sequence (P09874 whole entry): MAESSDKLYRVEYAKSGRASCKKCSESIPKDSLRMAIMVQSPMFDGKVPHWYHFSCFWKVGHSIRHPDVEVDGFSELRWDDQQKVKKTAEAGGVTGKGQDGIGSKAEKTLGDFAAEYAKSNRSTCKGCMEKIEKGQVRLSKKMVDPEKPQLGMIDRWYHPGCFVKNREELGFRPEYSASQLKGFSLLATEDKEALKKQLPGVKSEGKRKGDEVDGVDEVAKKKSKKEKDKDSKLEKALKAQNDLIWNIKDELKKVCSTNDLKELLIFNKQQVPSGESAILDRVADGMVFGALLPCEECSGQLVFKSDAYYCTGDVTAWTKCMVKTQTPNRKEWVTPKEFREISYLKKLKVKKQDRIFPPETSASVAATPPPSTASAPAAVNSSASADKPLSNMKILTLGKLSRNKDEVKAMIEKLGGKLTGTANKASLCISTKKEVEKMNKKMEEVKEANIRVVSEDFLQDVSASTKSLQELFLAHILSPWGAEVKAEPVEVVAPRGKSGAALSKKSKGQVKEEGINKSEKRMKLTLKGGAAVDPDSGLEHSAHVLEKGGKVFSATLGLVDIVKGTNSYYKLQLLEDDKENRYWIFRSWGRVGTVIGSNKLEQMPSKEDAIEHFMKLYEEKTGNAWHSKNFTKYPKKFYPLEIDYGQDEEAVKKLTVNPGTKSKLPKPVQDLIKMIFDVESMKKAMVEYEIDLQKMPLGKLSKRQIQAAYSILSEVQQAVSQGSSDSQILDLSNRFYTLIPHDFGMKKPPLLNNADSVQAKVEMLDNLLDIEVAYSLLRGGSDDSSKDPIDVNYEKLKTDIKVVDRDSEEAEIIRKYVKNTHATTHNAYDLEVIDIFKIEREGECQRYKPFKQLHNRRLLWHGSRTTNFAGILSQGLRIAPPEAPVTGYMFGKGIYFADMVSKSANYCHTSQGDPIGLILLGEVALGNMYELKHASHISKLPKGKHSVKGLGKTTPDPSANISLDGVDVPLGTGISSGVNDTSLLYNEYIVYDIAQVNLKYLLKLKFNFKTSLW
State just the number; it will be interpreted in nM.

**Q:** Determine from records and report IC50 for Cc1scc2c(=O)[nH]c(CCCC(=O)N3CCC(C(=O)c4ccc(C(C)(C)O)cc4)CC3)nc12
**A:** 3100

**Q:** Determine from records and report IC50 for COc1ccc(C(=O)C2CCN(C(=O)CCCc3nn4cc(F)cc4c(=O)[nH]3)CC2)cc1
**A:** 2100

**Q:** Determine from records and report IC50 for Cc1scc2c(=O)[nH]c(CCCC(=O)N3CCC(c4cnc(N)c(-c5ncccn5)c4)CC3)nc12
**A:** 970

---

molecular target: PARP-1 (Homo sapiens, UniProt P09874); construct: purchased Enzo Life Sciences GmbH, Lörrach, Germany; test: PARP-1 autoparsylation assay (HTRF); assay type: biochemical; conditions: His-tagged Parp-1, autoparsylation HTRF
Structures can show the parent of a compound that is named as a salt.
Listed here: items and their measured IC50.
State just the number; it will be interpreted in µM.

Worked examples follow.
- MOLECULE: "Cc1nc(CCCC(=O)N2CCC(C(=O)c3ccc(F)cc3)CC2)[nH]c(=O)c1C [Compound C240]"
  IC50 / µM: 19
- MOLECULE: "COc1ccc(C(=O)C2CCN(C(=O)CCCc3nn4c(C)ccc4c(=O)[nH]3)CC2)cc1 [Compound C37]"
  IC50 / µM: 0.62

**Q:** Determine from records and report IC50 for CC(C)n1cc(C(=O)C2CCN(C(=O)CCCc3cn4c(F)ccc4c(=O)[nH]3)CC2)cn1 [Compound C212]
**A:** 5.6

**Q:** Determine from records and report IC50 for COc1ccc(C(=O)C2CCN(C(=O)CCCc3cn4cc(C)cc4c(=O)[nH]3)CC2)cc1 [Compound C8]
**A:** 2.9

**Q:** Determine from records and report IC50 for O=C(c1ccc(Cl)cc1)C1CCN(C(=O)CCCc2nc3c(c(=O)[nH]2)COCC3)CC1 [Compound C247, trifluoroacetate]
**A:** 3.5

**Q:** Determine from records and report IC50 for CCn1cc(C(=O)C2CCN(C(=O)CCCc3nc4c(cnn4C)c(=O)[nH]3)CC2)cn1 [Compound C213]
**A:** 11

**Q:** Determine from records and report IC50 for COc1ccc(C(=O)C2CCN(C(=O)CCCc3nc4c(ccn4C)c(=O)[nH]3)CC2)cc1 [Compound C40]
**A:** 1.6

**Q:** Determine from records and report IC50 for COc1ccc(C(=O)C2CCN(C(=O)CCCc3nc4c(c(=O)[nH]3)COCC4)CC2)cc1C [Compound C199]
**A:** 2.2

**Q:** Determine from records and report IC50 for COc1ccc(C(=O)C2CCN(C(=O)CCCc3nc4c(c(=O)[nH]3)COCC4)CC2)cn1 [Compound C193]
**A:** 8

**Q:** Determine from records and report IC50 for CCn1cc(C(=O)C2CCN(C(=O)CCCc3nn4cc(F)cc4c(=O)[nH]3)CC2)cn1 [Compound C215]
**A:** 5

**Q:** Determine from records and report IC50 for Cn1ccc2c(=O)[nH]c(CCCC(=O)N3CCC(C(=O)c4ccc(F)cc4)CC3)nc21 [Compound C186]
**A:** 1.2

**Q:** Determine from records and report IC50 for Cn1ncc2c(=O)[nH]c(CCCC(=O)N3CCC(C(=O)c4ccc(C(C)(F)F)cc4)CC3)nc21 [Compound C245]
**A:** 5.8
